Ref: patent US20180008587A1

# assay target: wild-type Androgen Receptor (AR-wt) (Homo sapiens, UniProt P10275)
# Construct: expressed in transfected cells; host or cells: LNCaP (LNCaP AR (cs))
# Sequence (P10275 whole entry): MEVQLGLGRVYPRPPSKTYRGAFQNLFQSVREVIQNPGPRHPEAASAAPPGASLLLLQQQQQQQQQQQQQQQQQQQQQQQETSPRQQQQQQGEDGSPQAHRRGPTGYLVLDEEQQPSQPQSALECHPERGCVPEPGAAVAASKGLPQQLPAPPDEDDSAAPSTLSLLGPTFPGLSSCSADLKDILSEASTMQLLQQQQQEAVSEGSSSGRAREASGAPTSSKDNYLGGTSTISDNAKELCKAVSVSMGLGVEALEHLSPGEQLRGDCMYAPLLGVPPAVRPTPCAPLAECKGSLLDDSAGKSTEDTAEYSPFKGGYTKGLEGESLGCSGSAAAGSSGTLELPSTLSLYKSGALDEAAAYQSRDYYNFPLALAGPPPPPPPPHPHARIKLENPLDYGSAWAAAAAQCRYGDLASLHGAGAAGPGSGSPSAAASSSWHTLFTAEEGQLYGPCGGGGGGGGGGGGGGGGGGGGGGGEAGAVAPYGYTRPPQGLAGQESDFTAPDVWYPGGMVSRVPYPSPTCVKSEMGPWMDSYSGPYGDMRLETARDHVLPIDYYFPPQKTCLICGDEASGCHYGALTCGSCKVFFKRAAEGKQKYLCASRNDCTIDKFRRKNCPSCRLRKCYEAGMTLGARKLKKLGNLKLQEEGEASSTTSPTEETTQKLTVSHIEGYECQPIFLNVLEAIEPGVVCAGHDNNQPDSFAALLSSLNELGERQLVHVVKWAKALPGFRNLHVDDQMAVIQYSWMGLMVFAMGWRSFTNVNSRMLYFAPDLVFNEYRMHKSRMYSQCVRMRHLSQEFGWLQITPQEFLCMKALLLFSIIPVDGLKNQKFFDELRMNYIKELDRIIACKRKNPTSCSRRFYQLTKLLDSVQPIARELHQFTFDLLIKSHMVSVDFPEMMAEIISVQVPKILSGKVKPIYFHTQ
# assay remarks: LNCaP-AR-wt AG reporter assay (ARE firefly luciferase, agonist mode)
# Type: cell-based
# conditions used: maximum % stimulation (agonist response) over tested concentration range; read-out: LNCaP-AR-wt AG MAX % Stim
experimental endpoint: Emax (%)

I = N#Cc1ncc(N2C(=O)C3(CCC3)N(c3ccc(Oc4ncccn4)cc3)C2=S)cc1C(F)(F)F
II = Cc1cc(N2C(=O)C3(CCC3)N(c3ccc(OCCc4ccccn4)c(F)c3)C2=S)cnc1C#N
III = Cc1cc(N2C(=O)C3(CCC3)N(c3ccc(C(=O)NCC4CCOCC4)c(F)c3)C2=S)cnc1C#N
stdin: Parameters: sort_field (Emax), sort_dir (desc). Response field: labels, in requested order.
stdout: I, II, III
